Experiment: solvent given as SMILES
Conditions: in CO
Reported emission maximum is given for each of the following compounds.

Inquiry: Record request: emission maximum value, item CCOC(=O)/C(C#N)=C/c1cc2c3ccccc3n(C)c2cc1OC
Reply text: 486 nm

Inquiry: Please give the measured emission maximum for this compound: Nc1ccc2c3c(cccc13)C(=O)c1ccccc1-2
Reply text: 667.11 nm

Inquiry: What emission maximum value was documented for this compound, CCN(CC)c1ccc(C=Cc2nc3nc4ccccc4nc3s2)cc1 ?
Reply text: 630 nm

---

List of emission maximum values.
Test: solvent given as SMILES
Conditions: in ClC(Cl)Cl
Could you kindly put the unit after your number?

Examples with their reported emission maximum follow.
INSERT INTO results (smiles_notation, endpoint_label, result) VALUES
  ('Cc1ccc(C2=Cc3ccc4ccccc4[n+]3[B-](F)(F)O2)cc1', 'emission maximum', '443 nm'),
  ('COc1cc2c(cc1/C=C/C(=C(C#N)C#N)c1ccccc1)c1ccccc1n2C', 'emission maximum', '554 nm'),
  ('Cc1cc(C)c(B(c2c(C)cc(C)cc2C)c2cc3ccc4ccccc4c3c3c2cc(N(C)C)c2ccccc23)c(C)c1', 'emission maximum', '585 nm'),
  ('O=S(=O)(c1ccc(N2c3ccccc3Oc3ccccc32)cc1)c1ccc(N2c3ccccc3Oc3ccccc32)cc1', 'emission maximum', '539 nm'),
  ('COCCN(CCOC)c1ccc(/C=C/c2sc3c4nc(C)sc4ccc3[n+]2C)cc1', 'emission maximum', '601 nm'),
  ('Cc1cc(C)c(B(c2c(C)cc(C)cc2C)c2cc3cc(N(C)C)c4ccccc4c3c3c2ccc2ccccc23)c(C)c1', 'emission maximum', '536 nm'),
  ('CCC1(CC)c2cc(B(c3c(C)cc(C)cc3C)c3c(C)cc(C)cc3C)ccc2-c2c1c1c(c3c2C(CC)(CC)c2cc(N(c4ccccc4)c4ccccc4)ccc2-3)C(CC)(CC)c2cc(B(c3c(C)cc(C)cc3C)c3c(C)cc(C)cc3C)ccc2-1', 'emission maximum', '473 nm');

Inquiry: Any idea what its emission maximum is? The molecule is CCCCCCCCC1(CCCCCCCC)c2cc(-c3ccc(C=C4C(=O)c5ccccc5C4=O)cc3)ccc2-c2ccc(-c3ccc(C=C4C(=O)c5ccccc5C4=O)cc3)cc21
Reply text: 530 nm

The reported measurements were obtained from the Deep4Chem optical property database.
